Hey, just so you know, these numbers are from ChEMBL document CHEMBL1921787.

Tested on: Rattus norvegicus
protocol: Antihepatotoxic activity against CCl4-induced liver damage in rat assessed as increase in total protein level at 10 mg/kg, po (reference value: 3.54 +/- 0.67 g/dl)
Assay type: functional
measurement-kind: Activity (g/dL)
Reply with just the number (in g/dL).

# input Return reported Activity; argument: Clc1ccc(C2=NNC(c3ccc4c(c3)OCCO4)C2)cc1 (stereo not given)
# output 3.91

# input Return reported Activity; argument: Oc1ccc(C2=NNC(c3ccc4c(c3)OCCO4)C2)c(O)c1 (stereo not given)
# output 3.82

# input Return reported Activity; argument: c1ccc(C2=NNC(c3ccc4c(c3)OCCO4)C2)cc1 (stereo not given)
# output 4.04

# input Return reported Activity; argument: Cc1cccc(C2=NNC(c3ccc4c(c3)OCCO4)C2)c1 (stereo not given)
# output 3.98

# input Return reported Activity; argument: COc1ccc(C2=NNC(c3ccc4c(c3)OCCO4)C2)cc1OC (stereo not given)
# output 3.82
